- experimental-system: Voltage-gated inwardly rectifying potassium channel KCNH2 (Homo sapiens, UniProt Q12809)
- Sequence (Q12809 whole entry): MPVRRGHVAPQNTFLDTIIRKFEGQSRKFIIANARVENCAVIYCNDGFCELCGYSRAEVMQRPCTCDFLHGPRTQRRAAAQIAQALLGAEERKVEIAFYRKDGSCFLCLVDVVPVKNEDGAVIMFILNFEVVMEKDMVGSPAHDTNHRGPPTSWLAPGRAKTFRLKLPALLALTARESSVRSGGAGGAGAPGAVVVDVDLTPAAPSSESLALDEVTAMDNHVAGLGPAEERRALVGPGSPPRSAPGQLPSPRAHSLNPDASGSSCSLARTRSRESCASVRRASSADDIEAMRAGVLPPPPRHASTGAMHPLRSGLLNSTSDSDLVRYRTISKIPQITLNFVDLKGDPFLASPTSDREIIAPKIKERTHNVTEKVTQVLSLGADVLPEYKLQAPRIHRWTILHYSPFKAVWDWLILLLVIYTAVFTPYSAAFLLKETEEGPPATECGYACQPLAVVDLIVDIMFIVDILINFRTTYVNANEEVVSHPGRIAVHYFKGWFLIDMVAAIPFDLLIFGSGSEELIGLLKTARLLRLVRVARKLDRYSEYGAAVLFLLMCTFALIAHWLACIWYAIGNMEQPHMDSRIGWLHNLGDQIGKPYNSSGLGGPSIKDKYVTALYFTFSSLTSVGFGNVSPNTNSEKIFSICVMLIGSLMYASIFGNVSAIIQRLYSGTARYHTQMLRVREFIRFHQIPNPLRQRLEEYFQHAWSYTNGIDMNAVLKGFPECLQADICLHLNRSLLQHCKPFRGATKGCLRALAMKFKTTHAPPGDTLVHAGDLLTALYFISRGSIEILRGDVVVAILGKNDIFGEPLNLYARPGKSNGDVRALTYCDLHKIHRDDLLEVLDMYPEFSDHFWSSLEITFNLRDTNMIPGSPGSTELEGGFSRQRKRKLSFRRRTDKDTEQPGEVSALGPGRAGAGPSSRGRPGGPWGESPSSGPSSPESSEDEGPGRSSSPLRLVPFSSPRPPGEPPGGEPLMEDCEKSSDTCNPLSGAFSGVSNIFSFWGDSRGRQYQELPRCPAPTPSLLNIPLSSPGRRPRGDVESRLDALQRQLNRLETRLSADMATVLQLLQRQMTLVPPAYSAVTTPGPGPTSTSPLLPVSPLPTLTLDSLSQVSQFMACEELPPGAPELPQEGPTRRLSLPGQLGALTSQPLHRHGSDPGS
- protocol-description: Displacement of [3H]dofetilide from human HERG expressed in HEK293 cells
- Assay type: cell-based
endpoint-name: IC50

Consider the reported IC50 for these compounds:
• O=C(CCc1ccccc1)N[C@H]1CC[C@](O)(c2ccc(O)cc2)CC1 = > 30 µM
• Cc1cnc(CCC(=O)N[C@H]2CC[C@H](c3ccc(O)cc3)CC2)s1 = > 10 µM
• O=C1CCc2cc([C@@H](O)CN3CCC(O)(c4cccc(F)c4)CC3)ccc2N1 = 1.1 µM
• O=C1CC(Cc2ccccc2)CCN1CC(O)c1ccc(O)cc1 (stereo not drawn) = > 30 µM

**Q:** // query IC50 value for entry O=C(N[C@H]1CC[C@H](c2ccc(O)cc2)CC1)C1Cc2ccccc2CN1 (stereo partly drawn)
**A:** > 30 µM

**Q:** Look up IC50: O=C(CCc1ccccc1)N[C@H]1CC[C@](O)(c2ccc(O)cn2)CC1
**A:** > 30 µM

**Q:** Fill in the blank: the reported IC50 of C[C@@H]([C@@H](O)c1ccc(O)cc1)N1CCC(Cc2ccccc2)CC1 [(S)-IFENPRODIL] is ____.
**A:** < 1 µM

**Q:** What value of IC50 has been recorded for this entry: O=C(CCc1ccccn1)N[C@H]1CC[C@H](c2ccc(O)cc2)CC1
**A:** > 30 µM
